Test: Metabolic stability in human liver microsomes assessed as half life by LC-MS/MS analysis
Format: ADME, Microsome
parameter measured: half-life

[[record]]
compound_structure = "C=CCCCCOc1cccc(CC(=O)Nc2ccc(CCCCc3nnc(NC(=O)C4CC(F)(F)C4)s3)nn2)c1"
parameter_measured = "half-life"
test_result = "1.46 h"

[[record]]
compound_structure = "CCCCOc1cccc(CC(=O)Nc2ccc(N3CCC(Nc4nnc(NC(=O)CCCC)s4)CC3)nn2)c1"
parameter_measured = "half-life"
test_result = "1.8 h"

[[record]]
compound_structure = "C=CCCCCOc1cccc(CC(=O)Nc2ccc(CCCCc3nnc(NC(=O)CCC=C)s3)nn2)c1"
parameter_measured = "half-life"
test_result = "0.418 h"

[[record]]
compound_structure = "CCCCCCOc1cccc(CC(=O)Nc2ccc(CCCCc3nnc(NC(=O)CCCC)s3)nn2)c1"
parameter_measured = "half-life"
test_result = "0.433 h"

[[record]]
compound_structure = "C=CCCOc1cccc(CC(=O)Nc2ccc(N3CCC(Nc4nnc(NC(=O)CCC=C)s4)CC3)nn2)c1"
parameter_measured = "half-life"
test_result = "1.14 h"

[[record]]
compound_structure = "CCCCOc1cccc(CC(=O)Nc2ccc(CCCCc3nnc(NC(=O)CCCC)s3)nn2)c1"
parameter_measured = "half-life"
test_result = "0.909 h"

[[record]]
compound_structure = "O=C(Cc1cccc(OC(F)(F)F)c1)Nc1ccc(CCCCc2nnc(NC(=O)Cc3ccccn3)s2)nn1"
parameter_measured = "half-life"
test_result = "1.65 h"


Origin of values: ChEMBL document CHEMBL5352475
